Origin of the recorded values: ChEMBL document CHEMBL1142531

# run_description: Plasma concentration in mouse at 10 mg/kg, po after 30 mins
# Format: ADME, organism-based
# Parameters: dose 10 mg/kg, route oral
reported_metric: concentration at 0.5 h (nM)

                                item_smiles  measurement
0  Cc1c(C2=CCN(C(=O)N(C)C(C)C)CC2)nnn1-c1cccnc1F          210

----------
# run_description: Oral bioavailability in rat at 3 mg/kg
# Format: ADME, organism-based
# condition_notes: in vivo
reported_metric: bioavailability (%)

                                item_smiles  measurement
0  Cc1c(C2=CCN(C(=O)N(C)C(C)C)CC2)nnn1-c1cccnc1F           18
